The measurements presented in this section are drawn from the supplement of paper PMC9170038.

- Tested on: MS2 coat protein
- test protocol: apparent KD of MS2 coat protein; designed switch direction (-1 OFF switch, 1 ON switch): -1; higher = weaker reporter binding
- conditions: input ligand: FMN 200 uM
Assign criterion met to entries whose apparent KD of MS2 coat protein meets or exceeds 50 nM; assign criterion not met to the rest.

Consider the following illustrative entries.
Ask | Identify whether the reported apparent KD of MS2 coat protein of the following sequence is 50 nM or greater: CAGCUGAAAGUCAGGAUAUCUAGAGCGAUAGCUCUAGAGAAGGGACAUGAGGAUCACCCAUGUGGUCACAGCUG [BmEx4/5-A4] (Eterna round: R97, puzzle: Brourd's mod of Exclusion 4)
Reply | criterion met

Ask | Identify whether the reported apparent KD of MS2 coat protein of the following sequence is 50 nM or greater: CAUGUGCGAAAGGAUAUGGCCCGCGGAUCAGCUCCAGAAGGUUCGACAUGAGGAUCACCCAUGUGAUCUGGUAA [Eternabot (L1) Solution 61] (Eterna round: R97, puzzle: Exclusion 6)
Reply | criterion met

Ask | Identify whether the reported apparent KD of MS2 coat protein of the following sequence is 50 nM or greater: AAGAAAGACGAAGGAUAUUCAGGCGCCGAAGUAGAAGAAGGUCGUCCGGGUGUCCUAAAACUUGAGGAUCACCCAAGUAGAAGA [Mutated MS2 EX1.2] (Eterna round: R96, puzzle: Exclusion NG 1)
Reply | criterion met

Ask | Identify whether the reported apparent KD of MS2 coat protein of the following sequence is 50 nM or greater: AUCGUGCAGCUUUGCUGUACGAGUACAUGAGGAUCACCCAUGUAGGAUAUGGUACGCUUUGCGUGCUAGAAGGAUAUGUGUUAG [EX ENG3 1.43] (Eterna round: R96, puzzle: Exclusion NG 3)
Reply | criterion not met

Turning to the following sequence.
Ask | Identify whether the reported apparent KD of MS2 coat protein of the following sequence is 50 nM or greater: CUGAGCUGAGGAUAUACAUGAGGAUCACCCAUGUUAAGCAGCUUGCGUAAAAGCAGAUGUAGAAGGCAGUUCGG [Mod of JL 18 - Jieux - Exclusion 3] (Eterna round: R97, puzzle: Exclusion 3)
Reply | criterion not met

---

- System: MS2 coat protein
- test protocol: apparent KD of MS2 coat protein; designed switch direction (-1 OFF switch, 1 ON switch): 1; higher = weaker reporter binding
- conditions: input ligand: FMN 200 uM
quantity: apparent KD of MS2 coat protein (nM)
Give bare numbers, in nM.

Worked set:
Per the records, this sequence ( GGACGUCAUCUCACUGAUUAACAUGAGGAUCACCCAUGUUCACAGGAUAUGAGUCCGAUUAGGACUCAGAAGGGUGAGACGUCC [Fiskers NG3ss - 47] (Eterna round: R96, puzzle: Same State NG 3) ) has apparent KD of MS2 coat protein equal to 19.3

Per the records, this sequence ( GGUAGGUUACUACCAAACAUGAGGAUCACCCAUGUAAGUGGGAAGGAUAUGGUACCGUUUCGGUACCAGAAGGUCCAUAUAGUA [JL Fiskers NG3ss - 2 mod 11] (Eterna round: R96, puzzle: Same State NG 3) ) has apparent KD of MS2 coat protein equal to 232

Per the records, this sequence ( UAUUAAUCUGUAGGAUAUCUAGGAUAUGGACGAGGAUCACCCGAGCAGCAUCAGCGCACCAGAGGAGAGAAGGACGCUCUGGUG [pwkr ssNG2 2F5 2FMN.25] (Eterna round: R96, puzzle: Same State NG 2) ) has apparent KD of MS2 coat protein equal to 332

// below: apparent KD of MS2 coat protein requested for another sequence
Per the records, this sequence ( GGUAUGGACACAGGAUAUGCUUACGAAACGUAAGCAGAAGGGUGAACAUGAGGAUCACCCAUGUACGUACCAGGGCGUGAGCCC [JL SSNG1 1.76] (Eterna round: R96, puzzle: Same State NG 1) ) has apparent KD of MS2 coat protein equal to 440

---

- Test system: MS2 coat protein
- test protocol: apparent KD of MS2 coat protein; designed switch direction (-1 OFF switch, 1 ON switch): 1; higher = weaker reporter binding
- conditions: Eterna round: R95; input ligand: FMN 200 uM
Assign true (1) to entries whose apparent KD of MS2 coat protein meets or exceeds 100 nM; assign false (0) to the rest.

Ask | Identify whether the reported apparent KD of MS2 coat protein of the following sequence is 100 nM or greater: AGUCCAGCAUGAGCUGGACAAAAGCAUGUACAUGAGGAUCACCCAUGUUCAUGUACAAGCUUUUUGCUCGUCUUAAU [Mat - hsa-mir-208a - Mod of JL - 61] (puzzle: Sensor for hsa-mir-208a)
Reply | true (1)

Next:
Ask | Identify whether the reported apparent KD of MS2 coat protein of the following sequence is 100 nM or greater: GGUCCAGCCUGAGCUGGACAAAAGCAUGUACAUGAGGAUCACCCAUGUUCAUGUACAAGCUUUUUGCUCGUCUUAUC [salish99_208a_r3_056] (puzzle: Sensor for hsa-mir-208a)
Reply | true (1)

Ask | Identify whether the reported apparent KD of MS2 coat protein of the following sequence is 100 nM or greater: GGUCCAGCCUGAGCUGGACCGAAGCAUGUACAUGAGGAUCACCCAUGUCAUGUACAGGCUUUUUGCUCGUCUUAUUG [JL-shm-2.12 JL Mod] (puzzle: Sensor for hsa-mir-208a)
Reply | true (1)

Ask | Identify whether the reported apparent KD of MS2 coat protein of the following sequence is 100 nM or greater: UGAAUACAUGAGGAUCACCCAUGUCAACGUAGUCGAGGAUAUGGGCAGCCGUGAGGCGUACUAGAAGGCGAAGAGG [JL-ss1-3.07 ViennaUCT mod] (puzzle: Same State 1)
Reply | true (1)

Ask | Identify whether the reported apparent KD of MS2 coat protein of the following sequence is 100 nM or greater: GCAGAACAUGAGGAUCACCCAUGUCUCUAAUAUCGAGGAUAUGGGCAGGGUAUAUCCCAACCAGAAGGCGAACUGC [SS1 Teenbexe 14] (puzzle: Same State 1)
Reply | false (0)

Ask | Identify whether the reported apparent KD of MS2 coat protein of the following sequence is 100 nM or greater: AGUGGAGCCUGAGCUCCACAAAAGCAUGUACAUGAGGAUCACCCAUGUCAUGUACAAGCUUUUUGCUCGUCUUAAAA [Mat - hsa-mir-208a - Mod of JL - D18] (puzzle: Sensor for hsa-mir-208a)
Reply | true (1)

---

- System: MS2 coat protein
- test protocol: apparent KD of MS2 coat protein; higher = weaker reporter binding
- conditions: Eterna round: R107; input ligand: theophylline 20 uM
Give measured apparent KD of MS2 coat protein for each item. Keep answers brief.

Per the records, this sequence ( AGCGACAUGCGUGAUACCAGCUACAUGAGGAUCACCCAUGUAAGUAGGAAACUACUGUGUAGCCCUUGGCAGCACAAUGCAUGUC [Exclusion - Theophylline B (Freestyle 24)] ) has apparent KD of MS2 coat protein equal to 37.2 nM

Per the records, this sequence ( ACAUGAGGAUCACCCAUGUGAAGCAGGGUACGAGGACCGGUACGGCCGCCACUCGAGGAUUAUACCGAGUGAAUGGCAACGAUGU [whbob_Ex_trypto A_2s18] ) has apparent KD of MS2 coat protein equal to 21.8 nM

# batch: return apparent KD of MS2 coat protein for each of the 2 sequences below
1. AAUAAACAUGAGGAUCACCCAUGUAUGGAAGGAGCGGUGAAUAAACCAGGUAGGUCGCCAGUGUGAGGGUCAUCUAUGUAAUAAA [Exclusion - Arginine A (Freestyle 2)]
2. GAUGAACUAUUUGAUACCAGACUACAUGAGGAUCACCCAUGUGAGUUUAUACUUCUGUCAGUCCCUUGGCAGCAAAUAGUUUAUC [XTheo B #5]

Reply |
1: 43.1 nM; 2: 27.8 nM

# batch: return apparent KD of MS2 coat protein for each of the 2 sequences below
1. AAGACAUGAGGAUCACCCAUGUCGUCAACACGAGGACCGGUACGGCCGCCACUCGCAUGCCAAUGAGCGCAUGCGGCCUGGGUAU [Exclusion Tryp A GF4]
2. UGGUACAUGAGGAUCACCCAUGUUCCAGAUACCAGAUACCCGGUUAUCCCUUGGCAGCUGGUGUUACAUGAGGAUCACCCAUGUU [Exclusion Theophylline A GF16]

Reply |
1. 18 nM
2. 46 nM

---

- System: MS2 coat protein
- test protocol: apparent KD of MS2 coat protein; designed switch direction (-1 OFF switch, 1 ON switch): -1; higher = weaker reporter binding
- conditions: Eterna round: R95; input ligand: microRNA oligo, concentration not stated
quantity: apparent KD of MS2 coat protein (nM)
One number for each entry, in nM.

Measured apparent KD of MS2 coat protein (MS2 coat protein), entry GAGUGACAUGAGGAUCACCCAUGUGAGGAUAUCGGCCGGACCUUGUUAGCUUCCGCCGCGAGAAGGCACAUCGG [Exclusion 1 V28] (puzzle: Exclusion 1) : 55.9

# batch: return apparent KD of MS2 coat protein for each of the 2 sequences below
1. GGUUGGCGAGGAUAUACAUGAGGAUCACCCAUGUGAGAGAAACAAGUGAGGAAGAAAAGUAGAAGGCGCUGACG [salish99_ex3_r3_023] (puzzle: Exclusion 3)
2. GAGAAACAUGAGGAUCACCCAUGUGAGGAUAUGAAAAAGAAAAGAAAAGAAAGAAGAAUCAGAAGGCACAAAGG [salish99-ex1_r3_078] (puzzle: Exclusion 1)

Reply |
88.1
30.8
